The values you see were collected from PubChem BioAssay AID652002.

Target: Tumor necrosis factor receptor superfamily member 10B (Homo sapiens)
Test: compound enhancement of TRAIL-induced cell killing – NB7 cells plus caspase-8, luminescence, panel, dose response (AID 652002)
Conditions: NB7 neuroblastoma +caspase-8, TRAIL sensitization, luminescence viability; NB7+Caspase-8; with TRAIL, mean of runs
Activity calls are given as the source filed them. The rule behind the calls is not given here.
Measured metric: EC50

Solved cases (5 shown):
COCCNC(=O)c1cc(-c2ccc(-c3ccccc3)cc2)nc2ccccc12	inactive
CC(C)Cc1nc2oc3c(Cl)ncnc3c2c2c1CCCC2	> 12.5 µM (inactive)
CCOc1ccc2nc(NC(=O)c3cccc(-c4cc5ccccc5oc4=O)c3)sc2c1	> 12.5 µM (inactive)
Cc1cc(N/N=C/c2ccccc2)nc(NCc2ccccc2)n1	inactive
C#CC(=O)CC1(CN(Cc2ccccc2)C(=O)OC(C)(C)C)CCCCC1	inactive

Continue with the next molecule.
Query string: Tell me the measured EC50 of Cc1ccc(N=C/C(C(=O)C(F)(F)F)=C(\O)c2cccs2)cc1 , please.
Result string: inactive
